# Procedure summary: Plasma concentrations after i.v. bolus of SD209 in pigs (in vivo conversion of prodrug)
# Parameters: species or system Yorkshire domestic swine
# Assay setup: pig, plasma, iv, 0.5 mg/kg, pig 2, Time 0.1 hr, i.v. bolus 0.5 mg/kg of SD209; read-out: plasma conc.
Assay readout: concentration at 0.1 h (ng/mL)

> print(dat)
                                   compound           assay.readout  reported.value
1  Cc1cc(C)c(S(=O)(=O)NC(CNC(=O)c2ccc3c(cnn3CCCNc3ncc[nH]3)c2)C(=O)OCC[N+](C)(C)C)c(C)c1 (stereo not shown)  concentration at 0.1 h              20
